# target or system: OXA-48 (Klebsiella pneumoniae, UniProt Q6XEC0)
# Construct: made in house; host or cells: E. coli
# Sequence (Q6XEC0 23-265 limits assumed): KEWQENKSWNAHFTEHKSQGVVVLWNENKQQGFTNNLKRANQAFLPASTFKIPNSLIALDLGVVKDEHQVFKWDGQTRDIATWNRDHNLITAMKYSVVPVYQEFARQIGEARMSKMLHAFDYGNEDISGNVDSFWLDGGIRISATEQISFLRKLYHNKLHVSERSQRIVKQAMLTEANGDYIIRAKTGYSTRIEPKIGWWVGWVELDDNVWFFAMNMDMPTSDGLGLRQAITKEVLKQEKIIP
# measurement description: β-lactamase inhibitory activity, determination of IC50 (nitrocefin hydrolysis)
# Assay type: biochemical
pIC50: −log10 of the molar value.
Think of 8 as a floor: if pIC50 stands on it or above, it is met; beneath it, not met.

Task: Does NC[C@@H]1C(c2nccs2)=C[C@@H]2CN1C(=O)N2OS(=O)(=O)[O-].O=C(O)C(F)(F)F.[Na+] [Example 2, sulfate] have a reported pIC50 of at least 8?
Output: met

Task: Does NC[C@H]1C=C(c2cnco2)[C@@H]2CN1C(=O)N2OS(=O)(=O)[O-].O=C(O)C(F)(F)F.[Na+] (relative stereo) [Example 1, sulfate] have a reported pIC50 of at least 8?
Output: met

Task: Does Cn1cc(C2=C[C@@H](CN)N3C[C@@H]2N(OS(=O)(=O)O)C3=O)cnc1=O (relative stereo) have a reported pIC50 of at least 8?
Output: not met

Task: Does NC[C@@H]1C=C(c2cnco2)[C@@H]2CN1C(=O)N2OC(F)(F)C(=O)O (relative stereo) have a reported pIC50 of at least 8?
Output: met

Task: Does NC[C@@H]1C(c2ncco2)=C[C@@H]2CN1C(=O)N2OS(=O)(=O)[O-].O=C(O)C(F)(F)F.[Na+] [Example 5, sulfate] have a reported pIC50 of at least 8?
Output: not met

###

# target or system: CTX-M-15 (Escherichia coli, UniProt Q9EXV5)
# measurement description: β-lactamase inhibitory activity, determination of IC50 (nitrocefin hydrolysis)
observed property: IC50 (nM)
Quick reminder: number only, in nM, skip the unit.

Task: Form: Entry = NC[C@@H]1C=C(c2cnco2)[C@@H]2CN1C(=O)N2OC(F)(F)C(=O)O (relative stereo) | System = CTX-M-15 (Escherichia coli, UniProt Q9EXV5) | IC50 = ____
Output: 2

Task: Form: Entry = Cn1cc(C2=C[C@@H](CN)N3C[C@@H]2N(OS(=O)(=O)O)C3=O)cnc1=O (relative stereo) | System = CTX-M-15 (Escherichia coli, UniProt Q9EXV5) | IC50 = ____
Output: 510

Task: Form: Entry = NC[C@@H]1C(c2nccs2)=C[C@@H]2CN1C(=O)N2OS(=O)(=O)[O-].O=C(O)C(F)(F)F.[Na+] [Example 2, sulfate] | System = CTX-M-15 (Escherichia coli, UniProt Q9EXV5) | IC50 = ____
Output: 0.76

Task: Form: Entry = NC[C@@H]1C(c2ncco2)=C[C@@H]2CN1C(=O)N2OS(=O)(=O)[O-].O=C(O)C(F)(F)F.[Na+] [Example 5, sulfate] | System = CTX-M-15 (Escherichia coli, UniProt Q9EXV5) | IC50 = ____
Output: 130

Task: Form: Entry = NC[C@H]1C=C(c2cnco2)[C@@H]2CN1C(=O)N2OS(=O)(=O)[O-].O=C(O)C(F)(F)F.[Na+] (relative stereo) [Example 1, sulfate] | System = CTX-M-15 (Escherichia coli, UniProt Q9EXV5) | IC50 = ____
Output: 5.4

###

# target or system: UniProtKB P0AD64
# Sequence (P0AD64 22-286): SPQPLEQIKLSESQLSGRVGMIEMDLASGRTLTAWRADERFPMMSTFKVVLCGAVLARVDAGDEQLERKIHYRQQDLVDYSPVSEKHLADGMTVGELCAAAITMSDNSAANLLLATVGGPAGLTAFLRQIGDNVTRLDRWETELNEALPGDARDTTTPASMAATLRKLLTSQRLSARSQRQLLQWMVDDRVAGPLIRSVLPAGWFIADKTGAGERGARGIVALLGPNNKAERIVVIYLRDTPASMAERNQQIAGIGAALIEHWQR
# measurement description: β-lactamase inhibitory activity, determination of IC50 (nitrocefin hydrolysis)
Threshold 5 nM. IC50 below it: Fulfilled. IC50 at it or above: Not fulfilled.

Task: Please indicate whether the reported IC50 of NC[C@@H]1C(c2ncco2)=C[C@@H]2CN1C(=O)N2OS(=O)(=O)[O-].O=C(O)C(F)(F)F.[Na+] [Example 5, sulfate] is strictly below 5 nM.
Output: Not fulfilled

Task: Please indicate whether the reported IC50 of NC[C@H]1C=C(c2cnco2)[C@@H]2CN1C(=O)N2OS(=O)(=O)[O-].O=C(O)C(F)(F)F.[Na+] (relative stereo) [Example 1, sulfate] is strictly below 5 nM.
Output: Fulfilled

Task: Please indicate whether the reported IC50 of NC[C@@H]1C=C(c2cnco2)[C@@H]2CN1C(=O)N2OC(F)(F)C(=O)O (relative stereo) is strictly below 5 nM.
Output: Fulfilled

Task: Please indicate whether the reported IC50 of NC[C@@H]1C(c2nccs2)=C[C@@H]2CN1C(=O)N2OS(=O)(=O)[O-].O=C(O)C(F)(F)F.[Na+] [Example 2, sulfate] is strictly below 5 nM.
Output: Fulfilled

Task: Please indicate whether the reported IC50 of Cn1cc(C2=C[C@@H](CN)N3C[C@@H]2N(OS(=O)(=O)O)C3=O)cnc1=O (relative stereo) is strictly below 5 nM.
Output: Not fulfilled
